Study the reported IC50 values for Histone deacetylase 1 (Homo sapiens, UniProt Q13547) given below; they originate from different publications.
// return numeric value only (unit: nM, not printed)

Answered cases to consult:
COc1ncc(-c2cc(OCCCCCCCCC(=O)Nc3ccccc3N)c3ncnc(C)c3c2)cc1NS(=O)(=O)c1ccc(F)cc1F : 253
CC(C)(C)OC(=O)N[C@@H](Cc1ccc(O)cc1)C(=O)N1CC2(C[C@H]1C(=O)NCCCCCC(=O)NO)SCCS2 : 450
O=C(NO)c1ccc(C(C(=O)Nc2ccccc2)C(=O)Nc2ccccc2)cc1 : 5

Prompt line: Data request, read-out IC50, for `O=C(CCCCCn1cc(-c2ccc3ncnc(Nc4ccc(OCc5nccs5)c(Cl)c4)c3c2)nn1)NO`
Response line: 7.2

Prompt line: Returns the measured IC50 for the input molecule. Input: `O=C(CCCCCCC(=O)Nc1ccc(-c2ccnc(Nc3cccc(N4CCCCC4)c3)n2)cc1)NO`
Response line: 179

Prompt line: Give its IC50 value. Item: `Nc1nc(-c2ccco2)c2cnn(Cc3cccc(OCCCCCC(=O)NO)n3)c2n1`
Response line: 192

Prompt line: Request the reported IC50 associated with `Cc1cccc(-c2cn(C)c(=O)c3[nH]c(C(=O)NCc4ccc(C(=O)Nc5ccccc5N)cc4)cc23)c1`
Response line: 54.9

Prompt line: Looking for the measured IC50 of `O=C(NO)c1coc(-c2ccc3ccccc3c2)n1` , can you help?
Response line: 12200

Prompt line: Which value of IC50 has been reported for `COc1cc(OC)cc(N(CCCCCC(=O)NO)c2ccc3ncc(-c4cnn(C)c4)nc3c2)c1` in the records?
Response line: 2.6

Prompt line: What does the record list as IC50 for `Nc1nc(-c2ccco2)c2cnn(Cc3cccc(OCCCCCCC(=O)NO)n3)c2n1` ?
Response line: 23

Prompt line: Data request, read-out IC50, for `CC[C@H](C(=O)Nc1ccc(C(=O)Nc2ccc(F)cc2N)nc1)c1ccccc1`
Response line: 610

Prompt line: // IC50 lookup, key: `C=CCCCCCC[n+]1cccc(CCCCCCCCCCCC[n+]2cccc(CCCCC=C)c2)c1.[Cl-].[I-]`
Response line: 530

Prompt line: State the recorded IC50 for this entry: `CC(=O)CCCCC[C@H](NC(=O)c1cncs1)c1ncc(-c2ccccc2)[nH]1`
Response line: 140

Prompt line: Fill blank: measured IC50 of the molecule `Nc1nc2cc(-c3nn(Cc4ccc(C(=O)NO)cn4)c4ncnc(N)c34)ccc2o1` is ____.
Response line: 11
